Listing of entries alongside the reported pKd.
assayed-system: CspA (Escherichia coli, UniProt P0A9X9 1-70)
Sequence (P0A9X9 whole entry): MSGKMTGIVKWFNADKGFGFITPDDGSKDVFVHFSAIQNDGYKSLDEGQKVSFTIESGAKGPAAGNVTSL
run-description: tryptophan fluorescence quenching; 20°C; Trp fluorescence: 1 uM CspA, Buffer H, 20°C; EMSA: Buffer O, 15 or 37°C, 10% native PAGE at 4°C; Fe-EDTA footprinting: Buffer N, 15°C; UV cross-linking at 15°C; buffer compositions not given in the material
setup-conditions: protein: recombinant; tags: His-tag (pETM11) removed with TEV; single strand
pKd: −log10 of the molar value.
property: pKd

1. AACUGGUA (ssRNA) [Oligo 1] | 5.91
2. AACUGGAA (ssRNA) [Oligo 6] | 5.68
3. AACUAGUA (ssRNA) [Oligo 4] | 5.99
4. AAAAAAAAA (ssRNA) [Oligo 7 (poly-A)] | 5.29
5. AACAGGUA (ssRNA) [Oligo 3] | 5.91
6. AAAUGGUA (ssRNA) [Oligo 2] | 5.64

The measured values listed here are drawn from paper PMC9947658.
